test: Binding affinity to HIV1 25-2AP TAR by 2-AP based fluorescence assay; design: species or system Human immunodeficiency virus 1; conditions: read-out: Kd(app)
Quick list: pKd per entry.
Note on units: pKd is unitless, being -log10 of a concentration expressed in mol/L.

Smiles Code | pKd
Nc1c(-c2nnc(-c3cccc(C(F)(F)F)c3)o2)sc2ncccc12 | 4.30
Cc1ccc2c(N)c(-c3nc(-c4cccc(C(F)(F)F)c4)no3)sc2n1 | 4.32

Exercise: If you can, please state the reported pKd value of CC(C)c1ccc2c(N)c(C(=O)Nc3cccc(C(F)(F)F)c3)sc2n1 .
Key: 4.36

---

Quick list: pKd per entry.
assay: Binding affinity to HIV1 23-2AP TAR by 2-AP based fluorescence assay; set-up: species or system Human immunodeficiency virus 1; details: read-out: Kd(app)
Note on units: pKd is unitless, being -log10 of a concentration expressed in mol/L.

Smiles Code | pKd
Cc1cnc2sc(C(=O)Nc3cccc(C(F)(F)F)c3)c(N)c2c1 | 4.26

Exercise: If you can, please state the reported pKd value of Cc1ccc2c(N)c(-c3nnc(-c4ccccc4)o3)sc2n1 .
Key: 4.24

Exercise: Do the same for Cc1ccc2c(N)c(-c3nc(-c4cccc(C(F)(F)F)c4)no3)sc2n1 please
Key: 4.34

---

Quick list: Kd per entry.
assay: Binding affinity to HIV1 23-2AP TAR by 2-AP based fluorescence assay; design: species or system Human immunodeficiency virus 1; settings: read-out: Kd(app)
Reply numerically in µM, unit not repeated.

Answered examples (5):
Smiles Code | Output Unit | Quantitative Readout
Cc1ccc2c(N)c(C(=O)Nc3ccc(C(F)(F)F)cc3)sc2n1 | µM | 84.1
Cc1ccc2c(N)c(C(=O)NCc3cccc(C(F)(F)F)c3)sc2n1 | µM | 69.4
CC(C)c1ccc2c(N)c(C(=O)Nc3cccc(C(F)(F)F)c3)sc2n1 | µM | 107
Cc1ccnc2sc(C(=O)Nc3cccc(C(F)(F)F)c3)c(N)c12 | µM | 94.1
Cc1ccc2c(N)c(C(=O)Nc3ccccn3)sc2n1 | µM | 64.3

Exercise: If you can, please state the reported Kd value of Cc1ccc2c(N)c(-c3nnc(-c4cccc(Cl)c4)o3)sc2n1 .
Key: 45.6

---

experiment: Binding affinity to HIV1 TAR by FRET based Tat/TAR displacement assay; set-up: species or system Human immunodeficiency virus 1
pIC50: −log10 of the molar value.
Assay Endpoint: pIC50

Answered examples (4):
Smiles Code | pIC50
Cc1ccc2c(n1)sc1c(=O)n(-c3cccc(C(F)(F)F)c3)c(=O)[nH]c12 | < 3.40
Cc1ccc2c(N)c(C(=O)Nc3ccncc3)sc2n1 | < 3.40
Cc1ccc2c(N)c(C(=O)Nc3ccc(C(F)(F)F)cc3)sc2n1 | 4.06
Cc1ccc2c(N)c(-c3nnc(-c4cccc(C(F)(F)F)c4)o3)sc2n1 | 4.40

Exercise: If you can, please state the reported pIC50 value of Cc1ccc2c(N)c(C(=O)Nc3cccc(C(F)(F)F)c3)sc2n1 .
Key: < 3.40

Exercise: Do the same for Cc1ccc2c(N)c(S(=O)(=O)Nc3cccc(F)c3)sc2n1 please
Key: < 3.40

Exercise: Do the same for Cc1ccc2c(N)c(S(=O)(=O)Nc3cccc(C(F)(F)F)c3)sc2n1 please
Key: < 3.40

Exercise: Do the same for Cc1ccc2cc(C(=O)Nc3cccc(C(F)(F)F)c3)sc2n1 please
Key: < 3.40

Exercise: Do the same for Cc1ccc2c(N)c(C(=O)NCc3cccc(C(F)(F)F)c3)sc2n1 please
Key: < 3.40

Exercise: Do the same for Cc1cnc2sc(C(=O)Nc3cccc(C(F)(F)F)c3)c(N)c2c1 please
Key: < 3.40

Exercise: Do the same for Nc1c(-c2nnc(-c3cccc(C(F)(F)F)c3)o2)sc2ncccc12 please
Key: 4.42

Exercise: Do the same for Cc1ccc2c(N)c(-c3nnc(-c4cccc(Cl)c4)o3)sc2n1 please
Key: < 3.40

Exercise: Do the same for Cc1ccc2c(N)c(C(=O)Nc3ccccn3)sc2n1 please
Key: < 3.40

Exercise: Do the same for Cc1ccnc2sc(C(=O)Nc3cccc(C(F)(F)F)c3)c(N)c12 please
Key: < 3.40

Exercise: Do the same for Cc1ccc2c(N)c(-c3nc(-c4cccc(C(F)(F)F)c4)no3)sc2n1 please
Key: 4.35

Exercise: Do the same for Cc1ccc2c(N)c(C(=O)Nc3ccccc3C(F)(F)F)sc2n1 please
Key: 4.04

Exercise: Do the same for CC(C)c1ccc2c(N)c(C(=O)Nc3cccc(C(F)(F)F)c3)sc2n1 please
Key: < 3.40

Exercise: Do the same for Cc1ccc2c(N)c(C(=O)Nc3cccnc3)sc2n1 please
Key: < 3.40

Exercise: Do the same for Cc1ccc2c(N)c(-c3nnc(-c4ccccc4)o3)sc2n1 please
Key: < 3.52
